TARGET_OF_ASSAY: T1, lecithin:cholesterol acyltransferase (LCAT), purified from human plasma (human, UniProt P04180 25-440)
T1 sequence (looked up): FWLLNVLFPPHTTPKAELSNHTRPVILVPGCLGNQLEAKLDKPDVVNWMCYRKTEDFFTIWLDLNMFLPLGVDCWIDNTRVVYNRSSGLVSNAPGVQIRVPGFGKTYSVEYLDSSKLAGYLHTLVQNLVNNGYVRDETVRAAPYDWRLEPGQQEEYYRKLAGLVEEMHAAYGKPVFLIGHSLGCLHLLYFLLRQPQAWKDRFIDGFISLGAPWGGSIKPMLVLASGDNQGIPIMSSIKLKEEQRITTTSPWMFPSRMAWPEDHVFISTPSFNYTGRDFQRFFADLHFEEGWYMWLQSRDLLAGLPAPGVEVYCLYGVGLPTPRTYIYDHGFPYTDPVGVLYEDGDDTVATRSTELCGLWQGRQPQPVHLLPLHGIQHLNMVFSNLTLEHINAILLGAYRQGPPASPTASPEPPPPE
ASSAY_NAME: cell-based or functional assay
OUTCOME_MEASURE: ACTIVITY (%) LCAT
Please answer using a numeric value trailed by its unit.

Here are 3 binders together with their reported answers.
In [3]: df
Out[3]:
                                 binder    outcome_measure  result
0   PVLDLFRNLLEELLEALQKKLK [peptide 66]  ACTIVITY (%) LCAT     15%
1  PVLELFENLLERLFDALQKKLK [peptide 147]  ACTIVITY (%) LCAT     76%
2  PVLELFENLLERLLDAWQKKLK [peptide 164]  ACTIVITY (%) LCAT     24%

The record that follows has no ACTIVITY (%) LCAT shown yet.
# ACTIVITY (%) LCAT lookup, item PLLELFENLLEKLLDALQKKLK [peptide 183] 6%
